molecular target: T1, human CLDN18.1 (human, UniProt P56856 1-261); experiment: flow cytometry, phage supernatant on hCLDN18.1-expressing HEK293 cells
T1 construct: Full length, overexpressed on HEK293 cells; also called hCLDN18.1; human CLDN18.1-HEK293
T1 sequence (P56856 whole entry): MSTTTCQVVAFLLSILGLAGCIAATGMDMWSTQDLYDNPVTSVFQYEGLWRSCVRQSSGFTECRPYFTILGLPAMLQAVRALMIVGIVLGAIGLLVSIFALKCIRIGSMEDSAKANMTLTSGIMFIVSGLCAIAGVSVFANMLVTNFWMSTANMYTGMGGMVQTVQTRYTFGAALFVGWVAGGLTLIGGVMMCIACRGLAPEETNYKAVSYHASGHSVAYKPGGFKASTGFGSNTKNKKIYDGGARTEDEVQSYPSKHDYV
quantity-kind: mean fluorescence intensity (MFI)
Please respond with the number in MFI and leave the unit unwritten.

In: For A18-1-78 (VHH) VHH: EVQLQESGGGLVQPGGSLRLSCAASGNIFRIDTMGWYRQAPGKQREFVAGISRGGSTNYAHSVKERFTISRDNAKNTMYLQMNSLKSEDTAGYYCNAQAWDPGTIRYLEVWGQGTLVTVSA , write its mean fluorescence intensity.
Out: 3680

In: For A18-1-42 (VHH, also called candidate nanobody A18-1-42) VHH: EVQVVESGGGLVQPGGSLRLSCAASGSILHIPVMSWYRQAPGKQRELVAGISTGGTTNYGDSVKGRFTISRDNAKNTVYLQMNSLKPEDTAAYYCNVLVVSGIGSHLEVWG , write its mean fluorescence intensity.
Out: 1010

In: For A18-1-65 (VHH) VHH: EVQLQESGGGLVQPGGSLRLSCAASGTIFNLPVMSWYRQAPGKQRELVAGISTGGTTNYGDSVKGRFTISRDNARNTVYLQMNSLKPEDTAVYYCNVLVVSGIGSHLEVWG , write its mean fluorescence intensity.
Out: 5890

In: For A18-1-48 (VHH) VHH: EVQLVESGGGLVQPGGSLRLSCAASGNIFRIDTMGWYRQAPGKQREFVAGISRGGSTNYAHSVKERFTISRDNAKNTMYLQMNSLKSEDTAGYYCNAQAWDPGTIRYLEVWGQGTLVTVSA , write its mean fluorescence intensity.
Out: 3450

In: For A18-1-63 (VHH, also called candidate nanobody A18-1-63) VHH: QVQLQESGGGLVQPGGSLRLSCAASGSIFNIPVMGWYRQAPGKQRELVAGISTGGTTNYGDSVKGRFTISRDNAKNTVYLQMNSLKPEDTAVYYCNVLVVSGIGSTLEVWG , write its mean fluorescence intensity.
Out: 175

In: For A-2-4 (VHH, also called candidate nanobody A-2-4) VHH: EVQVQESGGGLVQAGTSLRLSCAASGNIFRIDTMGWYRQAPGKQRELVAGISRGGTTTYAHSVKERFTISRDNAKNTMYLQMNSLKSEDTAGYYCNAQAWDPGTFRYLEVWGQGTLVTVSA , write its mean fluorescence intensity.
Out: 4330

Values were extracted from patent US20220396616A1.
